Reference for the values: patent US6506772B1

- EXPERIMENTAL TARGET: human adenosine A2A receptor (Homo sapiens, UniProt P29274)
- Construct: expressed in transfected cells; host or cells: CHO cells, Semliki Forest virus expression system; membrane preparation
- Sequence (P29274 whole entry): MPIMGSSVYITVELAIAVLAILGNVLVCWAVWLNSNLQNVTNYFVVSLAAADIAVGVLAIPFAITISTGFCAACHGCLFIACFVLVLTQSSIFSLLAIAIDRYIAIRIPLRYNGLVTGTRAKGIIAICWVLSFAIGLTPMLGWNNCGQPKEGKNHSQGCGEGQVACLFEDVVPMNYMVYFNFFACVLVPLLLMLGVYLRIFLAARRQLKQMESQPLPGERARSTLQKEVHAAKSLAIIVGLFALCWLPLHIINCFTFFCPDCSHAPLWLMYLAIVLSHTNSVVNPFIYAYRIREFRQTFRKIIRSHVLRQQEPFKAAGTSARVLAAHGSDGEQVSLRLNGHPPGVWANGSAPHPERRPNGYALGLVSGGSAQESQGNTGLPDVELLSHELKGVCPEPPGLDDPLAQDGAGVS
- ASSAY SUMMARY: Human adenosine A2A receptor [3H]-SCH-58261 binding assay
- DETAILS: calculated ratio of the affinity to the HA1 receptor to the HA2a receptor
- Experimental: Human Adenosine A2A Receptor The human adenosine A2A receptor was recombinantly expressed in chinese hamster ovary (CHO) cells using the semliki forest virus expression system. […] Assay plates were incubated for 1 hour at room temperature before centrifugation and then bound ligand determined using a Packard Topcount scintillation counter. IC50 values were calculated using a non-linear curve fitting program and Ki values calculated using the Cheng-Prussoff equation.
Assign labels as follows, please: met for selectivity (A1/A2a) below 20; not met for selectivity (A1/A2a) equal to or exceeding 20.

IN: For this compound, is selectivity (A1/A2a) lower than 20? Cc1ccc(-c2nc3cc(C(=O)NC(C)c4ccccc4)cc(N)n3n2)s1 (stereo not drawn) [Example 198]
OUT: met

IN: Same lookup for CC1CC(C)CN(C(=O)c2cc(N)n3nc(-c4ccc(Br)o4)nc3c2)C1 (stereo not drawn) [Example 341] , please.
OUT: not met

IN: Same lookup for Cc1ccc(-c2nc3cc(C(=O)NCc4ccccc4Br)cc(N)n3n2)s1 [Example 200] , please.
OUT: met

IN: Same lookup for CCN(CC)C(=O)c1cc(N)n2nc(-c3ccco3)nc2c1 [Example 105] , please.
OUT: not met

IN: Same lookup for CC(C)N(Cc1ccccc1)C(=O)c1cc(N)n2nc(-c3ccco3)nc2c1 [Example 136] , please.
OUT: met

IN: Same lookup for Nc1cc(C(=O)N2CCCCC2)cc2nc(-c3ccccc3O)nn12 [Example 102] , please.
OUT: met

IN: Same lookup for CCCCNC(=O)c1cc(N)n2nc(-c3ccc(OC)s3)nc2c1 [Example 67] , please.
OUT: met

IN: Same lookup for CCCCNC(=O)c1cc(N)n2nc(-c3ccc(Br)o3)nc2c1 [Example 131] , please.
OUT: met

IN: Same lookup for CCN(C(=O)c1cc(N)n2nc(-c3sccc3C)nc2c1)C(C)C [Example 143] , please.
OUT: met

* * *

- EXPERIMENTAL TARGET: human adenosine A2A receptor (Homo sapiens)
- Construct: expressed in transfected cells; host or cells: CHO cells, Semliki Forest virus expression system; membrane preparation
- ASSAY SUMMARY: Human adenosine A2A receptor [3H]-SCH-58261 binding assay
- DETAILS: calculated ratio of the affinity to the HA1 receptor to the HA2a receptor
MEASUREMENT KIND: selectivity (A1/A2a)
Note: the reply should be a number with no unit written.

IN: Request the reported selectivity (A1/A2a) associated with COc1ccc(CNC(=O)c2cc(N)n3nc(-c4nccs4)nc3c2)cc1 [Example 207]
OUT: 2.8

IN: Same lookup for CC(C)N(C(=O)c1cc(N)n2nc(-c3nccs3)nc2c1)C(C)C [Example 122] , please.
OUT: 10.5

IN: Same lookup for Cc1ccc(-c2nc3cc(C(=O)N4CCCC4)cc(N)n3n2)s1 [Example 196] , please.
OUT: 8.3

IN: Same lookup for COc1ccc(-c2nc3cc(C(=O)N(Cc4ccccc4)C(C)C)cc(N)n3n2)s1 [Example 55] , please.
OUT: 2.7

IN: Same lookup for Nc1cc(C(=O)N2CCCC2)cc2nc(-c3cc(Br)co3)nn12 [Example 170] , please.
OUT: 4.5

IN: Same lookup for Nc1cc(C(=O)NCc2ccccc2Br)cc2nc(-c3cc(Br)co3)nn12 [Example 175] , please.
OUT: 1.5

IN: Same lookup for CC(C)N(Cc1ccccc1)C(=O)c1cc(N)n2nc(-c3ccc(Cl)o3)nc2c1 [Example 239] , please.
OUT: 14.6

IN: Same lookup for Nc1cc(C(=O)N2CCCCC2)cc2nc(-c3cccs3)nn12 [Example 129] , please.
OUT: 14.5

IN: Same lookup for CC1CCN(C(=O)c2cc(N)n3nc(-c4ccc(Br)o4)nc3c2)CC1 [Example 337] , please.
OUT: 28.6

IN: Same lookup for Nc1cc(C(=O)NCc2ccc(F)cc2)cc2nc(-c3ccc(Cl)o3)nn12 [Example 245] , please.
OUT: 1.9

IN: Same lookup for CCCCNC(=O)c1cc(N)n2nc(-c3cccn3C)nc2c1 [Example 178] , please.
OUT: 6.9

IN: Same lookup for COc1ccc(-c2nc3cc(C(=O)NCc4ccccc4OC)cc(N)n3n2)s1 [Example 58] , please.
OUT: 0.7

IN: Same lookup for CC1CCC(C)N1C(=O)c1cc(N)n2nc(-c3nccs3)nc2c1 (stereo not drawn) [Example 301] , please.
OUT: 30.5

IN: Same lookup for Nc1cc(C(=O)N2CC=CC2)cc2nc(-c3ccc(Br)o3)nn12 [Example 265] , please.
OUT: 76.2

IN: Same lookup for CN(C)C(=O)c1cc(N)n2nc(-c3ccc(Cl)o3)nc2c1 [Example 248] , please.
OUT: 13.6

IN: Same lookup for COc1cc(CNC(=O)c2cc(N)n3nc(-c4ccc(C)s4)nc3c2)cc(OC)c1OC [Example 202] , please.
OUT: 2.2

IN: Same lookup for Nc1cc(C(=O)NCc2ccccc2Br)cc2nc(-c3ccccc3)nn12 [Example 219] , please.
OUT: 4.4

IN: Same lookup for CCN1CCN(C(=O)c2cc(N)n3nc(-c4ccc(Br)o4)nc3c2)CC1 [Example 299] , please.
OUT: 13.0

* * *

- EXPERIMENTAL TARGET: human adenosine A2A receptor (Homo sapiens)
- Construct: expressed in transfected cells; host or cells: CHO cells, Semliki Forest virus expression system; membrane preparation
- ASSAY SUMMARY: Human adenosine A2A receptor [3H]-SCH-58261 binding assay
- DETAILS: affinity to human adenosine A2A receptor; read-out: Ki HA2A
MEASUREMENT KIND: Ki (nM)
Kindly answer with a numeric value in nM, unit omitted.

IN: Request the reported Ki associated with `COc1ccc(-c2nc3cc(C(=O)NCc4ccccc4OC)cc(N)n3n2)s1`
OUT: 71.9

IN: Same lookup for CC1CCCC(C)N1C(=O)c1cc(N)n2nc(-c3nccs3)nc2c1 (stereo not shown) , please.
OUT: 82.7

IN: Same lookup for `Cc1ccc(-c2nc3cc(C(=O)N(C)Cc4ccccc4)cc(N)n3n2)s1` , please.
OUT: 15.3

IN: Same lookup for `Nc1cc(C(=O)N2CCc3c([nH]c4ccccc34)C2)cc2nc(-c3ccc(Br)o3)nn12` , please.
OUT: 47

* * *

- EXPERIMENTAL TARGET: human adenosine A2A receptor (Homo sapiens)
- Construct: expressed in transfected cells; host or cells: CHO cells, Semliki Forest virus expression system; membrane preparation
- ASSAY SUMMARY: Human adenosine A2A receptor [3H]-SCH-58261 binding assay
- DETAILS: affinity to human adenosine A2A receptor; read-out: Ki HA2A
Please provide measured log10 of Ki for the entries that follow.
log10 Ki, nM

IN: Request the reported log10 of Ki associated with C=CCN(C)C(=O)c1cc(N)n2nc(-c3ccc(Cl)o3)nc2c1 [Example 251]
OUT: 1.17

IN: Same lookup for Nc1cc(C(=O)NCc2ccccc2Cl)cc2nc(-c3ccoc3)nn12 [Example 156] , please.
OUT: 1.23

IN: Same lookup for Nc1cc(C(=O)N2CC=CC2)cc2nc(-c3ccc(Br)o3)nn12 [Example 265] , please.
OUT: 0.87

IN: Same lookup for Nc1cc(C(=O)NC2CCc3ccccc32)cc2nc(-c3ccccc3)nn12 (stereo not drawn) [Example 149] , please.
OUT: 1.76

IN: Same lookup for COc1ccc(CNC(=O)c2cc(N)n3nc(-c4ccc(C)o4)nc3c2)cc1OC [Example 142] , please.
OUT: 2.45

IN: Same lookup for Cc1ccsc1-c1nc2cc(C(=O)NC3CCCCC3)cc(N)n2n1 [Example 37] , please.
OUT: 2.57

IN: Same lookup for CN(C)C(=O)c1cc(N)n2nc(-c3ccc(Cl)o3)nc2c1 [Example 248] , please.
OUT: 1.65

IN: Same lookup for CCCCNC(=O)c1cc(N)n2nc(-c3ccco3)nc2c1 [Example 104] , please.
OUT: 0.69

IN: Same lookup for Nc1cc(C(=O)N2CCN(Cc3ccccc3)CC2)cc2nc(-c3ccc(Br)o3)nn12 [Example 310] , please.
OUT: 2.17

* * *

- EXPERIMENTAL TARGET: human adenosine A2A receptor (Homo sapiens)
- Construct: expressed in transfected cells; host or cells: CHO cells, Semliki Forest virus expression system; membrane preparation
- ASSAY SUMMARY: Human adenosine A2A receptor [3H]-SCH-58261 binding assay
- DETAILS: affinity to human adenosine A2A receptor; read-out: Ki HA2A
- Protocol: Human Adenosine A2A Receptor The human adenosine A2A receptor was recombinantly expressed in chinese hamster ovary (CHO) cells using the semliki forest virus expression system. […] Assay plates were incubated for 1 hour at room temperature before centrifugation and then bound ligand determined using a Packard Topcount scintillation counter. IC50 values were calculated using a non-linear curve fitting program and Ki values calculated using the Cheng-Prussoff equation.
pKi: −log10 of the molar value.
Respond with YES for pKi values of 7 and above, NO for values below.

IN: Quick check: does COc1ccc(-c2nc3cc(C(=O)N(Cc4ccccc4)C(C)C)cc(N)n3n2)s1 [Example 55] have pKi greater than or equal to 7?
OUT: YES

IN: Same lookup for COc1ccc(CNC(=O)c2cc(N)n3nc(-c4ccc(C)o4)nc3c2)cc1 [Example 215] , please.
OUT: NO

IN: Same lookup for CCN(Cc1ccccc1)C(=O)c1cc(N)n2nc(-c3ccc(Cl)o3)nc2c1 [Example 261] , please.
OUT: YES

IN: Same lookup for Nc1cc(C(=O)NCc2ccccc2Br)cc2nc(-c3cccs3)nn12 [Example 164] , please.
OUT: YES

IN: Same lookup for CCN(CC)C(=O)c1cc(N)n2nc(-c3ccc(Cl)o3)nc2c1 [Example 233] , please.
OUT: YES

IN: Same lookup for Nc1cc(C(=O)NCc2ccccc2Br)cc2nc(-c3ccc[nH]3)nn12 [Example 92] , please.
OUT: NO

IN: Same lookup for Cc1ccsc1-c1nc2cc(C(=O)N(C(C)C)C(C)C)cc(N)n2n1 [Example 186] , please.
OUT: NO
